protein stability index values, listed per item
B1: ALDH8A1 (parent)
chain: WSSRSPQERSRVLNQVADLLEQSL

Variants of: B1
assay_info: protein stability index of a GFP-peptide fusion (GPS, HEK-293T) (PSI 1-6); higher = more stable;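 further: lentivirally expressed fusions sorted by FACS into six bins by GFP to DsRed ratio, PSI derived from sequencing read proportions per bin multiplied by bin number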
applied_conditions: c terminus: a fixed tail appended
Form: value (number only, do not type unit).

WSSRSPQERSRSLNQVADLLEQSL; 3.78
WSSRSPQERSRVLNQVADLLEQEL; 3.39
WSSRSPQQRSRVLNQVADLLEQSL; 2.57

We now examine a further variant.
**Q:** Return reported protein stability index. Input variant: WSSRSPQERSRVLNQVADLLEQST
**A:** 3.34
